Biological target: Plasma kallikrein (Homo sapiens, UniProt P03952)
Sequence (P03952 20-390 limits assumed): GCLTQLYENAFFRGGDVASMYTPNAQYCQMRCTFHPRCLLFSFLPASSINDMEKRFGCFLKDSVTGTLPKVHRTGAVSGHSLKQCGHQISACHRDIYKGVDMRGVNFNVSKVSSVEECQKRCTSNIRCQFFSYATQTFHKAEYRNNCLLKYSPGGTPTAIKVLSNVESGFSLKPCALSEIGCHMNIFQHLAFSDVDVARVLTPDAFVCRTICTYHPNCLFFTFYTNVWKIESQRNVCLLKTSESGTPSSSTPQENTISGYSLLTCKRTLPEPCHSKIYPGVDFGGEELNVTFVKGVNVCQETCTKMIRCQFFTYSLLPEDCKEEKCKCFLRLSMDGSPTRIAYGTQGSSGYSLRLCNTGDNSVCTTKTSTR
Sequence (P03952 391-638 limits assumed): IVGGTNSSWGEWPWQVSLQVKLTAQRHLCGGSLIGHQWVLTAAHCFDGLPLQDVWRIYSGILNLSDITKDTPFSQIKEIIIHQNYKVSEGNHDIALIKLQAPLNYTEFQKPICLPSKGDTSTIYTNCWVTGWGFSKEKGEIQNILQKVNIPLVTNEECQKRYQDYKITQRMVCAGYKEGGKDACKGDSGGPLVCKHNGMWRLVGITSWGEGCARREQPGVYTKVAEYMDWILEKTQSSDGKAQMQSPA
Test: Binding affinity against plasma kallikrein.
Where a name gives a salt, the structure may show the parent alone.
propertyName: Ki (µM)
Supply the numeric figure in µM, leaving out any unit text.

Entry under test: N=C(N)c1ccc2cc(OC(=O)c3ccc(NC4=NCCN4)cc3)ccc2c1 [SEPIMOSTAT MESYLATE] . Its Ki was 0.57

----------
Experiment: oral bioavailability in marmosets
Assay type: ADME, organism-based
Conditions: callithrix, in vivo, read-out: Bioavailabiility
propertyName: bioavailability (%)
Give the quantity in %, number only.

bioavailability in this record for `CNC1CCN(C(=O)C[C@@H](Cc2ccccc2)C(=O)N[C@@H](CSC)C(=O)N[C@@H](CC2CCCCC2)[C@@H](O)C(=O)OC(C)C)CC1` : 59
